# Test target: GHS-R1a receptor (HEK293 cells expressing GHS-R1a receptor) (Homo sapiens, UniProt Q92847)
# Construct: host or cells: HEK293
# Sequence (Q92847 whole entry): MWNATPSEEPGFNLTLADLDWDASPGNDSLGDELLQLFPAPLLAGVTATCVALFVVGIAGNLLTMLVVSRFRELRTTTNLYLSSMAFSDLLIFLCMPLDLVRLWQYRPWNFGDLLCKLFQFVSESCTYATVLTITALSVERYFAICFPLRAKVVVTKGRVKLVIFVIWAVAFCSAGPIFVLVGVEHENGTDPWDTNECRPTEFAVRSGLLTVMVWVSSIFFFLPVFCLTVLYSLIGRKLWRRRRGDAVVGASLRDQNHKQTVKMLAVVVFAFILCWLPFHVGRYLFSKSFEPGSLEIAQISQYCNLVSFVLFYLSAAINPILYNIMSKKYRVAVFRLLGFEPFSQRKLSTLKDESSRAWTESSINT
# Experimental protocol: Fluorescence functional assay (ghrelin receptor), Method B2, agonist and antagonist mode
# Assay type: cell-based
# Stated conditions: functional activity as an antagonist at the ghrelin receptor, Methods B2 and B3
Result type: Antagonist Activity

CC(C)[C@@H]1NCCOc2c(F)cccc2CCCNC(=O)[C@@H](Cc2ccccc2)NC(=O)[C@H](C(C)O)N(C)C1=O (stereo partly shown) [Compound 1376] | C (C = 10-100 nM)
CCC(C)[C@@H]1NCCOc2ccccc2/C=C/[C@@H](C)NC(=O)[C@@H](Cc2ccccc2)NC(=O)[C@H](C(C)O)N(C)C1=O (stereo partly shown) [Compound 1315] | C (C = 10-100 nM)
CC[C@@H]1C#Cc2ccc(F)cc2O[C@H](C)CN[C@@H](C2(C)CC2)C(=O)N(C)[C@@H](C(C)O)C(=O)N[C@H](Cc2c[nH]c3ccccc23)C(=O)N1 (stereo partly shown) [Compound 1707] | B (B = 1-10 nM)
CC(C)[C@@H]1NCCOc2ccccc2CC[C@@H](C)NC(=O)[C@@H](Cc2ccsc2)NC(=O)[C@H](C(C)O)N(C)C1=O (stereo partly shown) [Compound 1399] | B (B = 1-10 nM)
CCC(C)C1NCCOc2ccc(F)cc2C=CCNC(=O)C(Cc2ccc(Cl)cc2)NC(=O)C(C(C)O)N(C)C1=O (stereo not shown) [Compound 1740] | C (C = 10-100 nM)
CC[C@@H]1CCc2ccc(F)cc2OCCN[C@@H](C(C)C)C(=O)N(C)[C@@H](C(C)O)C(=O)N[C@H](Cc2ccc(O)cc2)C(=O)N1 (stereo partly shown) [Compound 1751] | B (B = 1-10 nM)

Endpoint output: Antagonist Activity of CC(C)[C@@H]1NCCOc2ccccc2/C=C/CNC(=O)[C@@H](Cc2cccc(Cl)c2)NC(=O)[C@H](C(C)O)N(C)C1=O (stereo partly shown) [Compound 1432] . Value?
B (B = 1-10 nM)

Then what about the molecule CC(C)[C@@H]1NCCOc2ccccc2CC[C@@H](C)NC(=O)[C@@H]([C@H](C)c2ccccc2)NC(=O)[C@H](C(C)O)N(C)C1=O (stereo partly shown) [Compound 1404] ?
B (B = 1-10 nM)

Then what about the molecule CC(C)C1NCCOc2cc(F)ccc2C#CCNC(=O)C(Cc2c[nH]c3ccccc23)NC(=O)C(C(C)O)N(C)C1=O (stereo not shown) [Compound 1693] ?
C (C = 10-100 nM)

Then what about the molecule CCC(C)[C@@H]1NCCOc2ccccc2CC[C@H](C)NC(=O)[C@@H](Cc2ccccc2)NC(=O)[C@H](C(C)O)N(C)C1=O (stereo partly shown) [Compound 1302] ?
C (C = 10-100 nM)

----------
For each of the compounds below, state its IC50.
# Test target: human ghrelin receptor (GRLN, growth hormone secretagogue receptor, hGHS-R1a) (Homo sapiens, UniProt Q92847)
# Construct: purchased PerkinElmer BioSignal #RBHGHSM, lot#1887; host or cells: HEK-293 cells, stably transfected (membranes)
# Sequence (Q92847 whole entry): as above
# Experimental protocol: Competitive radioligand binding assay (ghrelin receptor), Method B1
# Stated conditions: Ghrelin receptor binding activity, Method B1

Endpoint output: IC50 of CCC(C)C1NCCOc2cccc(F)c2C=CCNC(=O)C(Cc2ccc(Cl)cc2)NC(=O)C(C(C)O)N(C)C1=O (stereo not shown) [Compound 1799] . Value?
1 to 10 nM

Then what about the compound CC(O)[C@H]1C(=O)N[C@H](Cc2ccccc2)C(=O)N[C@@H](C)CCc2ccccc2OCCN[C@@H](C2CC2)C(=O)N1C (stereo partly shown) [Compound 1345] ?
100 to 500 nM

Then what about the compound CC[C@@H]1CCc2c(C#N)cccc2OCCN[C@@H](C(C)C)C(=O)N(C)[C@@H](C(C)O)C(=O)N[C@H](Cc2ccccc2)C(=O)N1 (stereo partly shown) [Compound 1889] ?
100 to 500 nM

Then what about the compound CCC(C)C1NCCOc2ccccc2C=CCNC(=O)C(Cc2c[nH]c3ccc(F)cc23)NC(=O)C(C(C)O)N(C)C1=O (stereo not shown) [Compound 1827] ?
10 to 100 nM

Then what about the compound CCC(C)C1NCCOc2ccccc2C=CCNC(=O)C(Cc2ccccc2C)NC(=O)C(C(C)O)N(C)C1=O (stereo not shown) [Compound 1737] ?
1 to 10 nM

Then what about the compound CCC(C)[C@@H]1NCCOc2ccccc2CC[C@H](C)NC(=O)[C@@H](Cc2ccccc2)NC(=O)[C@H](C(C)O)N(C)C1=O (stereo partly shown) [Compound 1302] ?
10 to 100 nM

Then what about the compound CCC(C)C1NCCOc2ccccc2CCCNC(=O)C(Cc2ccc(Cl)cc2)NC(=O)C(C(C)O)N(C)C1=O (stereo not shown) [Compound 1699] ?
10 to 100 nM

Then what about the compound CC(O)[C@H]1C(=O)N[C@H](Cc2ccc(F)cc2)C(=O)NCC#Cc2ccccc2OCCN[C@@H](C2(C)CC2)C(=O)N1C (stereo partly shown) [Compound 1879] ?
10 to 100 nM

Then what about the compound CCC(C)[C@@H]1NCCOc2ccccc2/C=C/CNC(=O)[C@@H](Cc2ccco2)NC(=O)[C@H](C(C)O)N(C)C1=O (stereo partly shown) [Compound 1331] ?
10 to 100 nM

Then what about the compound CC[C@@H]1CCc2c(cccc2C(F)(F)F)OCCN[C@@H](C(C)C)C(=O)N(C)[C@@H](C(C)O)C(=O)N[C@H](Cc2c[nH]c3ccccc23)C(=O)N1 (stereo partly shown) [Compound 1891] ?
100 to 500 nM

Then what about the compound CC1CCc2ccccc2OCCNC(C(C)C)C(=O)N(C)C(C(C)O)C(=O)NC(Cc2c[nH]c3ccc(F)cc23)C(=O)N1 (stereo not shown) [Compound 1801] ?
1 to 10 nM

Then what about the compound CC(C)C1CCc2ccccc2OCCNC(C(C)C)C(=O)N(C)C(C(C)O)C(=O)NC(Cc2c[nH]c3ccccc23)C(=O)N1 (stereo not shown) [Compound 1698] ?
10 to 100 nM

Then what about the compound CCC(C)[C@@H]1NCCOc2ccccc2C[C@@H](O)CNC(=O)[C@@H](Cc2ccccc2)NC(=O)[C@H](C(C)O)N(C)C1=O (stereo partly shown) [Compound 1339] ?
100 to 500 nM
